# Experimental system: Human pyruvate kinase R (PKR) (Homo sapiens, UniProt P30613)
# Construct: Human pyruvate kinase R (PKR), residues 14-574; 6x-His (N, cleaved yes); 8x-Arg (N, cleaved yes); SUMO (N, cleaved yes); host or cells: E. coli
# Sequence (P30613 14-574): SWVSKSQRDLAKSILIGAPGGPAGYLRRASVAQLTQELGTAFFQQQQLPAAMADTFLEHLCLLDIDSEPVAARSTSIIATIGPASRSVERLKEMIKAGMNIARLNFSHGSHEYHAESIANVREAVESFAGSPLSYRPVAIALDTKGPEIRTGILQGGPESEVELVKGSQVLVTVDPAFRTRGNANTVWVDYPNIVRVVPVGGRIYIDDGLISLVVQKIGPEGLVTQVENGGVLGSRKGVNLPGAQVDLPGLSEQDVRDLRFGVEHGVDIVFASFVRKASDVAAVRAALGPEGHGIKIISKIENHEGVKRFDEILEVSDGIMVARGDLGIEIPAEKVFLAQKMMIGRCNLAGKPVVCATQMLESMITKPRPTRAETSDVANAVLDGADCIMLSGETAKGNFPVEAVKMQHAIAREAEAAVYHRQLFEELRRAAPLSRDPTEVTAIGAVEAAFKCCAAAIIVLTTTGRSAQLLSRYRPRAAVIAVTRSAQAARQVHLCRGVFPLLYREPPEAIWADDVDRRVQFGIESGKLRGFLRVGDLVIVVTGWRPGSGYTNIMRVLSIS
# Protocol summary: Biochemical assay for activation of pyruvate kinase R (Kinase-Glo luminescence, ATP generation)
# Assay conditions: 0.1 nM PKR, 2 mM FBP, 0.3 mM ADP, 0.1 mM PEP
Quantity kind: AC50 (nM)

P = N[C@H](C(=O)N1Cc2cn(S(=O)(=O)c3ccc4ncsc4c3)nc2C1)c1ccccc1
Q = N[C@@H](C(=O)N1Cc2cn(S(=O)(=O)c3ccc4ncsc4c3)nc2C1)c1ccccc1
R = O=C(N1Cc2cn(S(=O)(=O)c3ccc4ncsc4c3)nc2C1)C1(c2ccccc2)CCCN1 (single isomer, unassigned)
S = O=C([C@@H](CO)c1ccccc1)N1Cc2cn(S(=O)(=O)c3ccc4ncsc4c3)nc2C1 (single isomer, unassigned)
T = O=C(C(CO)c1ccccc1Cl)N1Cc2cn(S(=O)(=O)c3cnc4c(c3)OCCO4)nc2C1 (single isomer, unassigned)
[ask] Kindly order the items shown according to AC50, from the highest value down. # list labels per requested ordering
[reply] R, P, Q, S, T
(R: 4000 nM, P: 110 nM, Q: 45 nM, S: 28 nM, T: 8.9 nM)

P = NCC(C(=O)N1Cc2cn(S(=O)(=O)c3ccc4ncsc4c3)nc2C1)c1ccccc1 (stereo not shown)
Q = O=C([C@H](CO)c1ccccc1F)N1Cc2cn(S(=O)(=O)c3ccc(OC(F)F)nc3)nc2C1
R = O=C([C@H](CO)c1ccccc1)N1Cc2cn(S(=O)(=O)c3ccc4nccnc4c3)nc2C1
S = N[C@@H](C(=O)N1Cc2cn(S(=O)(=O)c3ccc4occc4c3)nc2C1)c1ccccc1F
[ask] Ranking field: AC50; order: falling. # list labels per requested ordering
[reply] P, R, Q, S

====

# Experimental system: Human pyruvate kinase R (PKR) (Homo sapiens)
# Construct: Human pyruvate kinase R (PKR), residues 14-574; 6x-His (N, cleaved yes); 8x-Arg (N, cleaved yes); SUMO (N, cleaved yes); host or cells: E. coli
# Protocol summary: Biochemical assay for activation of pyruvate kinase R (Kinase-Glo luminescence, ATP generation)
# Assay conditions: 0.1 nM PKR, 2 mM FBP, 0.3 mM ADP, 0.1 mM PEP
Quantity kind: AC50 (nM)

# count of solved cases: 10
[
  {
    "Compound": "N[C@@H](C(=O)N1Cc2cn(S(=O)(=O)c3ccc4c(c3)OCCO4)nc2C1)c1ccccc1F [Compound 58]",
    "Measurement units": "nM",
    "Assay value": 25
  },
  {
    "Compound": "O=C(C(CO)c1ccncc1)N1Cc2cn(S(=O)(=O)c3ccc4ncsc4c3)nc2C1 (racemic) [Compound 27]",
    "Measurement units": "nM",
    "Assay value": 39
  },
  {
    "Compound": "O=C1CN([C@@H](C(=O)N2Cc3cn(S(=O)(=O)c4ccc(OC(F)F)cc4)nc3C2)c2ccccc2)C1 (single isomer, unassigned) [Compound 93]",
    "Measurement units": "nM",
    "Assay value": 5550
  },
  {
    "Compound": "O=C(N1Cc2cn(S(=O)(=O)c3ccc4c(c3)NCCO4)nc2C1)[C@]1(c2ccccn2)CCOC1 (single isomer, unassigned) [Compound 45]",
    "Measurement units": "nM",
    "Assay value": 15
  },
  {
    "Compound": "N[C@H](C(=O)N1Cc2cn(S(=O)(=O)c3ccc4ncsc4c3)nc2C1)c1ccccc1F [Compound 38]",
    "Measurement units": "nM",
    "Assay value": 270
  },
  {
    "Compound": "O=C([C@H](CO)c1ccccc1Cl)N1Cc2cn(S(=O)(=O)c3cnc4occc4c3)nc2C1 [Compound 86]",
    "Measurement units": "nM",
    "Assay value": 1.8
  },
  {
    "Compound": "O=C([C@H](O)c1ccccc1Cl)N1Cc2cn(S(=O)(=O)c3ccc4ncsc4c3)nc2C1 [Compound 65]",
    "Measurement units": "nM",
    "Assay value": 6.2
  },
  {
    "Compound": "COC(C(=O)N1Cc2cn(S(=O)(=O)c3ccc(OC(F)F)cc3)nc2C1)c1ccccc1F (racemic) [Compound 98]",
    "Measurement units": "nM",
    "Assay value": 210
  },
  {
    "Compound": "N[C@@H](C(=O)N1Cc2cn(S(=O)(=O)c3ccc4ncsc4c3)nc2C1)c1ccccc1Cl [Compound 63]",
    "Measurement units": "nM",
    "Assay value": 8.3
  },
  {
    "Compound": "O=C(N1Cc2cn(S(=O)(=O)c3ccc4ncsc4c3)nc2C1)[C@]1(c2ccccn2)CCOC1 (single isomer, unassigned) [Compound 19]",
    "Measurement units": "nM",
    "Assay value": 699
  }
]

1 = N[C@@H](C(=O)N1Cc2cn(S(=O)(=O)c3ccc4ncsc4c3)nc2C1)c1cccc(Cl)c1 [Compound 53]
2 = COc1ccc(S(=O)(=O)n2cc3c(n2)CN(C(=O)[C@H](O)c2ncccc2F)C3)cc1 (single isomer, unassigned) [Compound 87]
3 = O=C(N1Cc2cn(S(=O)(=O)c3ccc4ncsc4c3)nc2C1)C1(c2ccccc2)COC1 [Compound 40]
[ask] Ranking field: AC50; order: falling. # list labels per requested ordering
[reply] 3, 1, 2
(3: 60 nM, 1: 36 nM, 2: 25 nM)

====

# Experimental system: Human pyruvate kinase R (PKR) (Homo sapiens, UniProt P30613)
# Construct: Human pyruvate kinase R (PKR), residues 14-574; 6x-His (N, cleaved yes); 8x-Arg (N, cleaved yes); SUMO (N, cleaved yes); host or cells: E. coli
# Protocol summary: Biochemical assay for activation of pyruvate kinase R (Kinase-Glo luminescence, ATP generation)
# Assay conditions: maximal activation level relative to the activation level achieved by AG-348 @ 10 μM
Quantity kind: PKR % activation (%)

# count of solved cases: 4
[
  {
    "Compound": "C[C@@H](O)[C@H](C(=O)N1Cc2cn(S(=O)(=O)c3ccc(OC(F)F)cc3)nc2C1)c1ccccc1 [Compound 11]",
    "Experimental system": "Human pyruvate kinase R (PKR) (Homo sapiens, UniProt P30613)",
    "PKR % activation / %": 164
  },
  {
    "Compound": "O=C(N1Cc2cn(S(=O)(=O)c3ccc4ncsc4c3)nc2C1)[C@]1(c2ccccn2)CCOC1 (single isomer, unassigned) [Compound 19]",
    "Experimental system": "Human pyruvate kinase R (PKR) (Homo sapiens, UniProt P30613)",
    "PKR % activation / %": 59
  },
  {
    "Compound": "O=C([C@@H](c1ccccc1)N1CCOCC1)N1Cc2cn(S(=O)(=O)c3ccc(OC(F)F)cc3)nc2C1 (single isomer, unassigned) [Compound 108]",
    "Experimental system": "Human pyruvate kinase R (PKR) (Homo sapiens, UniProt P30613)",
    "PKR % activation / %": 0
  },
  {
    "Compound": "C[C@@H](O)[C@H](C(=O)N1Cc2cn(S(=O)(=O)c3ccc4ncsc4c3)nc2C1)c1ccccc1 [Compound 4]",
    "Experimental system": "Human pyruvate kinase R (PKR) (Homo sapiens, UniProt P30613)",
    "PKR % activation / %": 100
  }
]

I = O=C([C@@H](c1ccccc1)N1CCC1=O)N1Cc2cn(S(=O)(=O)c3ccc(OC(F)F)cc3)nc2C1 (single isomer, unassigned) [Compound 100]
II = O=C([C@H](CO)c1ncccc1F)N1Cc2cn(S(=O)(=O)c3ccc4ncccc4c3)nc2C1 (single isomer, unassigned) [Compound 103]
[ask] Of the two listed items, which has the higher PKR % activation? First: I Second: II Response format: the label of the selected entry.
[reply] II

====

# Experimental system: Human pyruvate kinase R (PKR) (Homo sapiens, UniProt P30613)
# Construct: Human pyruvate kinase R (PKR), residues 14-574; 6x-His (N, cleaved yes); 8x-Arg (N, cleaved yes); SUMO (N, cleaved yes); host or cells: E. coli
# Protocol summary: Biochemical assay for activation of pyruvate kinase R (Kinase-Glo luminescence, ATP generation)
# Assay conditions: 0.1 nM PKR, 2 mM FBP, 0.3 mM ADP, 0.1 mM PEP
Quantity kind: AC50 (nM)

[
  {
    "Molecule": "C[C@@](CO)(C(=O)N1Cc2cn(S(=O)(=O)c3ccc4c(c3)OCCO4)nc2C1)c1ccccn1 (single isomer, unassigned)",
    "Experimental system": "Human pyruvate kinase R (PKR) (Homo sapiens, UniProt P30613)",
    "Quantity kind": "AC50",
    "Assay value": 223
  }
]

A = N[C@@H](C(=O)N1Cc2cn(S(=O)(=O)c3ccc(OC(F)F)cc3)nc2C1)c1cccc(F)c1
B = C[C@@](CO)(C(=O)N1Cc2cn(S(=O)(=O)c3ccc4ncsc4c3)nc2C1)c1ccccn1 (single isomer, unassigned)
[ask] Of the two listed items, which has the higher AC50? First: A Second: B Response format: the label of the selected entry.
[reply] B
(B: 550 nM, A: 92 nM)
